experiment: enhancers of HDL lipid transfer via mSR-BI – ldlA[mSR-BI] CHO cells, DiI fluorescence, primary screen (AID 504775); settings: DiI-HDL uptake fluorescence, 3 h, at 12.5 µM, hits give high values, 100 = double the neutral-control signal;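 further: 0% = median plate neutral-control signal and 100% = twice that signal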
Out of some 320,000 compounds screened, about 310 (0.097%) were called active. Many of the other results were omitted from the sample, so actives are more common in it than they were.
Outcome measure: activation

1. C#CCOCCOCCOCCNc1nc(N2CCN(C(=O)Cn3cc(CCO)nn3)CC2)nc(N2CCN(C(=O)Cn3cc(CCCN=C(N)N)nn3)CC2)n1 : 17.5% (inactive)
2. C=CCN1C=C(C(=O)c2ccccc2)C(=O)CC1 : 19.3% (inactive)
3. CC1=CC(C)(C)Nc2ccc(OC(=O)C(Cc3ccccc3)N3C(=O)C4CCCCC4C3=O)cc21 (centres undefined) : 62.9% (active)
4. CC1=CC(C)(C)Nc2ccc(OC(=O)CN3C(=O)C4CCCCC4C3=O)cc21 (centres undefined) : 9.46% (inactive)
5. Cc1ccc(OCCNC(=O)c2cccc(S(=O)(=O)N3CCN(Cc4ccccc4)CC3)c2)cc1 : -20.6% (inactive)
6. COc1ccc(CNC(=O)COC(=O)C2=Cc3ccccc3OC2)cc1 : 3.54% (inactive)
7. CN(CCc1ccccc1)C(=O)c1cccc(NC(=O)Cc2cccc(NC(=O)C3CCCN(C(=O)CCc4ccccc4)C3)c2)c1 (centres undefined) : -78.5% (inactive)
8. CCC(CC)c1nnc(NC(=O)C2=COCCO2)s1 : 9.84% (inactive)

Consider the additional compound presented here.
Input line: Supply reported activation belonging to this compound: CCOC(=O)C1CCCN(C(=O)C2CCN(S(=O)(=O)c3ccc(Cl)c(C(F)(F)F)c3)CC2)C1 (centres undefined)
Output line: 22.7% (inactive)

----------
test: enhancers of HDL lipid transfer via mSR-BI – ldlA[mSR-BI] CHO cells, DiI fluorescence, primary screen (AID 504775); details: DiI-HDL uptake fluorescence, 3 h, at 12.5 µM, hits give high values, 100 = double the neutral-control signal;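 further: 0% = median plate neutral-control signal and 100% = twice that signal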
The campaign covered roughly 320,000 compounds. About 310 (0.097%) were called active. The full list was thinned out, with actives kept by preference.
Outcome measure: activation (%)
Please respond with the number in % and leave the unit unwritten.

1) C/C(=N\Nc1ccc(Cl)nn1)c1ccccc1O : 7.73

Input line: Supply reported activation belonging to this compound: "O=S(=O)(O)c1cc2onnc2c2ccccc12"
Output line: 15.5

Input line: Supply reported activation belonging to this compound: NC(=S)NN=C1CCCC(C(F)(F)F)C1 (centres undefined)
Output line: -74

Input line: Supply reported activation belonging to this compound: CN1CCOC1c1ccc(C2OCCN2C)cc1 (centres undefined)
Output line: 6.99

----------
assay: enhancers of HDL lipid transfer via mSR-BI – ldlA[mSR-BI] CHO cells, DiI fluorescence, primary screen (AID 504775); conditions: DiI-HDL uptake fluorescence, 3 h, at 12.5 µM, hits give high values, 100 = double the neutral-control signal;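 further: 0% = median plate neutral-control signal and 100% = twice that signal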
The campaign covered roughly 320,000 compounds. About 310 (0.097%) were called active. The sample as a whole holds a higher share of actives than the screen did.
Categorized via activation: bin 0 (below -10%), bin 1 (-10% to below 20%), bin 2 (20% or more)

1) CN(O)C(=S)c1ccccc1 : bin 2

Input line: Just checking, what class would you give Cc1ccc(NC(=O)C(C)OC(=O)C2CC3CCCC(C2)C3=O)cc1S(=O)(=O)N1CCOCC1 (stereo unspecified) here?
Output line: bin 1

Input line: Just checking, what class would you give "COc1ccc(-c2sc3ccccc3c2-c2ccc(OCCN3CCOCC3)cc2)cc1" here?
Output line: bin 0

Input line: Just checking, what class would you give "COc1ccc(Br)cc1/C=N/Nc1ccc(S(=O)(=O)Nc2ccccc2C(=O)O)cc1[N+](=O)[O-]" here?
Output line: bin 1

Input line: Just checking, what class would you give Nc1ccc2c(c1)C(O)c1ccc(Cl)cc1-2 (stereo unspecified) here?
Output line: bin 1

Input line: Just checking, what class would you give "Cc1ccc(Cn2c(C)c3cnn(CC(=O)NCCN4CCOCC4)c(=O)c3c2C)cc1" here?
Output line: bin 0

Input line: Just checking, what class would you give "COC[C@@H]1NS(=O)(=O)c2ccc(Br)cc2O[C@H]1c1ccccc1" here?
Output line: bin 1

----------
assay: enhancers of HDL lipid transfer via mSR-BI – ldlA[mSR-BI] CHO cells, DiI fluorescence, primary screen (AID 504775); settings: DiI-HDL uptake fluorescence, 3 h, at 12.5 µM, hits give high values, 100 = double the neutral-control signal;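 further: 0% = median plate neutral-control signal and 100% = twice that signal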
The whole screen tested about 320,000 compounds, of which about 310 (0.097%) were called active. Shown is part of a subset that was picked to be rich in actives.
Parameter: activation. Scope: all listed entries.
Please respond with the number in % and leave the unit unwritten.

Take a look at these entries with their results.
1) CCOc1cc(C(=O)N(Cc2ccccc2)c2ccc(C)cc2)ccc1OCC(=O)N1CCOCC1 : -5.71
2) Cc1nn(-c2ncccn2)c2c1C(=O)CC(C)(C)C2Br (stereo unspecified) : -6.98
3) N#CCc1c[nH]c2ccc([N+](=O)[O-])cc12 : 13.4
4) O=C(Cc1ccccc1)NNS(=O)(=O)c1ccc([N+](=O)[O-])cc1 : -11.7

Input line: Supply reported activation belonging to this compound: "CN(C)CCNC(=O)c1ccc(Cl)c2cc3ccccc3nc12"
Output line: 8.43

Input line: Supply reported activation belonging to this compound: "CCOC(=O)c1c(C)[nH]c(C(=O)OCC(=O)N2CCCC2=O)c1C"
Output line: 24.7

Input line: Supply reported activation belonging to this compound: "CCOC(=O)c1c(C)[nH]c(C(=O)OCC(=O)c2ccc(OC)cc2OC)c1C"
Output line: -45.7

Input line: Supply reported activation belonging to this compound: COc1ccc(C(C(=O)NC2CCCCC2)N(C(=O)c2snc(C(N)=O)c2N)c2ccccc2OC)cc1 (stereo unspecified)
Output line: 13.6

Input line: Supply reported activation belonging to this compound: Cc1ccccc1N(C(=O)CNC(=O)c1cccs1)C(C(=O)NC1CCCC1)c1ccncc1 (stereo unspecified)
Output line: 4.44

Input line: Supply reported activation belonging to this compound: COc1ccc(Cn2cc(CN3CCS(=O)(=O)N(Cc4ccc(-c5cccc(Cl)c5)cc4)C(C)C3=O)nn2)cc1 (stereo unspecified)
Output line: -34.7

Input line: Supply reported activation belonging to this compound: CC1CCC(NC(=O)CN(C)S(=O)(=O)c2ccc3c(c2)c(=O)n(C)c(=O)n3C)CC1 (stereo unspecified)
Output line: 246

Input line: Supply reported activation belonging to this compound: O=C1CC(c2ccccc2)C(=O)N2C(=O)CC(c3ccccc3)C(=O)N12 (stereo unspecified)
Output line: 16.5

Input line: Supply reported activation belonging to this compound: "O=C(CCCCCCCC(=O)N1CCCCC1)N1CCCCC1"
Output line: 7.36

Input line: Supply reported activation belonging to this compound: "Cc1ccc(C(=O)O)c(NC=O)c1OCc1ccccc1"
Output line: 19.3

Input line: Supply reported activation belonging to this compound: "COc1cccc(CNC(=O)CN(C)S(=O)(=O)c2ccc3c(c2)c(=O)n(C)c(=O)n3C)c1"
Output line: -3.22

Input line: Supply reported activation belonging to this compound: "CCc1ccccc1NC(=O)CN(C)S(=O)(=O)c1ccc2c(c1)c(=O)n(C)c(=O)n2C"
Output line: -3.85

Input line: Supply reported activation belonging to this compound: COc1ccc(C2NCCCC2c2ccccc2)cc1 (stereo unspecified)
Output line: -26.9

Input line: Supply reported activation belonging to this compound: COc1ccc(C(C(=O)NC2CCCCC2)N(C(=O)CCl)c2ccccc2Cl)cc1 (stereo unspecified)
Output line: 88.3

Input line: Supply reported activation belonging to this compound: "O=C1/C(=C\c2ccc([N+](=O)[O-])cc2)CS(=O)(=O)C/C1=C/c1ccc([N+](=O)[O-])cc1"
Output line: -17.7

Input line: Supply reported activation belonging to this compound: "O=C(NNS(=O)(=O)c1ccc([N+](=O)[O-])cc1)C1CCCCC1"
Output line: 62.5

Input line: Supply reported activation belonging to this compound: "Oc1[nH]c2ccccc2c1N=Nc1c(F)c(F)c(F)c(F)c1F"
Output line: -15.7

----------
assay: enhancers of HDL lipid transfer via mSR-BI – ldlA[mSR-BI] CHO cells, DiI fluorescence, primary screen (AID 504775); conditions: DiI-HDL uptake fluorescence, 3 h, at 12.5 µM, 100 = double the neutral-control signal;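 further: 0% = median plate neutral-control signal and 100% = twice that signal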
Out of some 320,000 compounds screened, about 310 (0.097%) were called active.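 Rule for the calls: active = mean replicate activation of at least 60% and every replicate at or above 60%; inconclusive = mean or all-replicate condition met, but not both; inactive = mean below 60% and not all replicates reaching 60%.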 What follows is part of a selection rich in actives, with near analogues and random picks from the rest.
API: response.call in T (active), F (inactive)

1. O=C1C(Cl)=C(Oc2ccccc2)C(=O)c2ccccc21 : F

Input line: Query: recorded result category for "COc1ccc(/C=C2/CCCc3ccccc3C2=O)cc1" in this test
Output line: F

Input line: Query: recorded result category for "CCN(CC)S(=O)(=O)c1cccc(NC(=O)c2ccc(S(=O)(=O)N3CCCC3)cc2)c1" in this test
Output line: F

Input line: Query: recorded result category for "CC(C)(C)OC(=O)N(Cc1ccccc1)Cc1ccc(OCc2cccc(NC(=O)c3ccccc3)c2)cc1" in this test
Output line: F

Input line: Query: recorded result category for "COc1cc2c(cc1CNC[C@H]1O[C@@H](n3cnc(C(N)=O)n3)[C@H](O)[C@@H]1O)OCO2" in this test
Output line: F

Input line: Query: recorded result category for "O=C(NNS(=O)(=O)c1ccc(F)cc1)c1ccc([N+](=O)[O-])cc1Cl" in this test
Output line: F

Input line: Query: recorded result category for "O=[N+]([O-])c1ccc(N=NNc2ccc([N+](=O)[O-])cc2)cc1" in this test
Output line: F

Input line: Query: recorded result category for CC(=O)OC1CCC2C3CCC4=C(CC(F)C(=O)C4)C3CCC12C (configuration not stated) in this test
Output line: F

Input line: Query: recorded result category for CC1C(C)N(C(=O)CCl)c2ccccc2N1C(=O)CCl (configuration not stated) in this test
Output line: F

Input line: Query: recorded result category for "O=[N+]([O-])c1ccc(NS(=O)(=O)c2ccccc2)c(Cl)c1" in this test
Output line: T

Input line: Query: recorded result category for COc1ccc(CC(=O)NC(C)c2ccc(Cl)c(Cl)c2)cc1S(=O)(=O)N1CCOCC1 (configuration not stated) in this test
Output line: F

Input line: Query: recorded result category for "Cc1ccc2c(O)c(Cc3ccccc3)c(=O)[nH]c2n1" in this test
Output line: F
